Molecular target: CDK7/Cyclin H/MAT1 kinase (Homo sapiens (Human))
Sequence (P50613 whole entry): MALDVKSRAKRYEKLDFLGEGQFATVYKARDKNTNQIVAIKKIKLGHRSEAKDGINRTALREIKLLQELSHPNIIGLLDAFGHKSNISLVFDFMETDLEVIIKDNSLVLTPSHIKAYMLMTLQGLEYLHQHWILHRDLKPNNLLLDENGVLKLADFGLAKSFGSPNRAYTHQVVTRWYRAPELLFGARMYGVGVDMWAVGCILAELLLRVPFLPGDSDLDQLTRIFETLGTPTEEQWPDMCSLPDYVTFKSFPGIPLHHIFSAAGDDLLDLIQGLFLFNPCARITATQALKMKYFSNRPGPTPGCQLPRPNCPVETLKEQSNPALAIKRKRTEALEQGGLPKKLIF
Sequence (P51946 whole entry partner): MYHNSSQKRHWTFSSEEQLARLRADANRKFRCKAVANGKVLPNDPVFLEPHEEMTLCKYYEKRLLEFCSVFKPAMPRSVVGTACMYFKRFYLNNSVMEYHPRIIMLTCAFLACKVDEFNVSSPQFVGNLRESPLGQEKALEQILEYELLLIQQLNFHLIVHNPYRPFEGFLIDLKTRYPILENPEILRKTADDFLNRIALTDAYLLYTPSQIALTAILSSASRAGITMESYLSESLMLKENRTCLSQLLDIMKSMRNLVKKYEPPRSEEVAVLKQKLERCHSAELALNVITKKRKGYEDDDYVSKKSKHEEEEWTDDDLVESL
Sequence (P51948 whole entry partner): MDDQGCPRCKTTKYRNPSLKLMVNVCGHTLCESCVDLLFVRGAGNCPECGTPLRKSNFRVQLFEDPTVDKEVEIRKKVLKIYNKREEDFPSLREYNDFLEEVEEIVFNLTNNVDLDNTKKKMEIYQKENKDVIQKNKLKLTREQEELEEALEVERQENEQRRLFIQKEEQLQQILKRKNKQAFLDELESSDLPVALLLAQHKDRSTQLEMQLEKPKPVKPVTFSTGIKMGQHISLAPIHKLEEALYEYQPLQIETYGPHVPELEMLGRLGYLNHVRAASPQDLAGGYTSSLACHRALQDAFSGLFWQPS
Experiment: Enzyme activity test, mobility shift assay (Table 1)
Format: biochemical
Conditions: 2 mM ATP; pre-incubated 0 and 60 minutes
Property: IC50; scope: individual molecules

INSERT INTO results (molecule, result) VALUES
  ('COC(=O)Nc1ccc2c(-c3nc(N[C@H]4CCCNC4)ncc3C(F)(F)F)c[nH]c2c1S(=O)(=O)C(C)C', '< 0.05 µM'),
  ('CCN[C@H]1CCC[C@@H]1Nc1ncc(C(F)(F)F)c(-c2c[nH]c3c(Br)c(NC(=O)OC)ccc23)n1', '< 0.05 µM'),
  ('COC(=O)Nc1ccc2c(-c3nc(N[C@H]4CCC5(CC5)NC4)ncc3C(F)(F)F)c[nH]c2c1Br', '< 0.05 µM'),
  ('COC(=O)Nc1ccc2c(-c3nc(N[C@H]4CCCNC4)ncc3C(F)(F)F)c[nH]c2c1-c1ccccc1', '< 0.05 µM'),
  ('COC(=O)Nc1ccc2c(-c3nc(N[C@H]4CCC(C)NC4)ncc3C(F)(F)F)c[nH]c2c1C1CC1 (some centres unmarked)', '0.05 to 0.5 µM');

For the record COC(=O)N(C)c1ccc2c(-c3nc(N[C@H]4CCCNC4)ncc3C(F)(F)F)c[nH]c2c1OC(F)F , what value of IC50 is listed for CDK7/Cyclin H/MAT1 kinase (Homo sapiens (Human))?
< 0.05 µM

Short answer please: IC50, CDK7/Cyclin H/MAT1 kinase (Homo sapiens (Human)), entry O=C(Nc1ccc2c(-c3nc(N[C@H]4CCCNC4)ncc3C(F)(F)F)c[nH]c2c1Br)C1CC1
< 0.05 µM

Please state recorded IC50 (tested on CDK7/Cyclin H/MAT1 kinase (Homo sapiens (Human))) of COC(=O)Nc1ccc2c(-c3nc(N[C@H]4CCC[C@@H]4N)ncc3C(F)(F)F)c[nH]c2c1Br
< 0.05 µM

Give CDK7/Cyclin H/MAT1 kinase (Homo sapiens (Human)) IC50 for COC(=O)Nc1ccc2c(-c3nc(N[C@H]4CCCNC4)ncc3C(F)(F)F)c[nH]c2c1
< 0.05 µM

Could you share what IC50 was measured for COC(=O)Nc1ccc2c(-c3nc(N[C@H]4CCC5(CC5)NC4)ncc3C(F)(F)F)c[nH]c2c1C1CC1 , tested on CDK7/Cyclin H/MAT1 kinase (Homo sapiens (Human))?
< 0.05 µM

# returns recorded IC50 (system: CDK7/Cyclin H/MAT1 kinase (Homo sapiens (Human))) for COC(=O)Nc1ccc2c(-c3nc(N[C@H]4CCCNC4)ncc3C(F)(F)F)c[nH]c2c1C(C)C
< 0.05 µM

Form entry - test system: CDK7/Cyclin H/MAT1 kinase (Homo sapiens (Human)); read-out: IC50; molecule: CCOC(=O)Nc1ccc2c(-c3nc(N[C@H]4CCCNC4)ncc3C(F)(F)F)c[nH]c2c1Br
< 0.05 µM

API: value(readout= IC50, system= CDK7/Cyclin H/MAT1 kinase (Homo sapiens (Human)), query= COC(=O)Nc1ccc2c(-c3nc(NC4CNC5CC5C4)ncc3C(F)(F)F)c[nH]c2c1Cl (centres unmarked) )
< 0.05 µM

Please tell me: IC50 of COC(=O)Nc1ccc2c(-c3nc(N[C@H]4CCCNC4)ncc3Cl)c[nH]c2c1Br , system CDK7/Cyclin H/MAT1 kinase (Homo sapiens (Human))?
< 0.05 µM

Every entry's value here was drawn from patent US20230295130A1.
